study-system: human F508del-CFTR (Homo sapiens, UniProt P13569, DEL508-508)
Sequence (P13569 with tags, fused parts or gaps DEL508-508): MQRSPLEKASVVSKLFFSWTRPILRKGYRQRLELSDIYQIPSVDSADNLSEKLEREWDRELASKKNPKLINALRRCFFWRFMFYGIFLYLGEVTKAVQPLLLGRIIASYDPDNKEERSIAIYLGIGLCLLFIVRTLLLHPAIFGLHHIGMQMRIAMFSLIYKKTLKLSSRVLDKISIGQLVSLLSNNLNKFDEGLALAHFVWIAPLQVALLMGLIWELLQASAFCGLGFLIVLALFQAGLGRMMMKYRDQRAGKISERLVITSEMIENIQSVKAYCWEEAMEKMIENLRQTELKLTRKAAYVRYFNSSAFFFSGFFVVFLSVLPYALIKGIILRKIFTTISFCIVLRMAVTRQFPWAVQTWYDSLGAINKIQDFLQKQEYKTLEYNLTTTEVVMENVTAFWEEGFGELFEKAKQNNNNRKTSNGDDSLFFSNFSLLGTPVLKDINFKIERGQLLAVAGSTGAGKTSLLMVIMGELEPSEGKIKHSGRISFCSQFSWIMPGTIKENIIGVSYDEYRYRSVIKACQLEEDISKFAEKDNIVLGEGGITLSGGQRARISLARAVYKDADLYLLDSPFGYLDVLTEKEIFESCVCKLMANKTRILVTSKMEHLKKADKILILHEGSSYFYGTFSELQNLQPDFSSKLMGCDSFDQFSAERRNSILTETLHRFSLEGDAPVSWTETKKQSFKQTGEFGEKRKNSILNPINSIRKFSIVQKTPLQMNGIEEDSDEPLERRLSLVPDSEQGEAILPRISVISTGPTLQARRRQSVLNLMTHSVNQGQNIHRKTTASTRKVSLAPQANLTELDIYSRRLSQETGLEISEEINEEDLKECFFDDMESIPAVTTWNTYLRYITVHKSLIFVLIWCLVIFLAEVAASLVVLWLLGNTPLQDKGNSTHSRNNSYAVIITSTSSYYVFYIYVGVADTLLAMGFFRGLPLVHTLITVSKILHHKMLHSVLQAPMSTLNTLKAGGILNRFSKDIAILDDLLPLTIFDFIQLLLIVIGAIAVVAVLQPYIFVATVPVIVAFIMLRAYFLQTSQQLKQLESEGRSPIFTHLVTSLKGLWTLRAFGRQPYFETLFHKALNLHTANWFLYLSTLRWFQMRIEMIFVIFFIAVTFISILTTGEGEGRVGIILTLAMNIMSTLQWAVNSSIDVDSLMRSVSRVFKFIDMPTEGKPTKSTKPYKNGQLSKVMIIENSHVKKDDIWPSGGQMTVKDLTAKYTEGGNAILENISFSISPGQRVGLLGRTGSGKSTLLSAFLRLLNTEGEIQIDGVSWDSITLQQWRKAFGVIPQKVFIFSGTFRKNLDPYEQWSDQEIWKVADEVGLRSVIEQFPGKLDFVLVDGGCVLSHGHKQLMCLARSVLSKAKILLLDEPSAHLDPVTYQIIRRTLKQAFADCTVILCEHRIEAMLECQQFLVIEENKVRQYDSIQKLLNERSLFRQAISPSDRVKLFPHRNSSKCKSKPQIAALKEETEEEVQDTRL
assay-overview: F508del-CFTR cell surface expression (corrector activity), DiscoveRx ß-galactosidase complementation chemiluminescence assay in recombinant U2OS cell line
condition-notes: EC50, F508del-CFTR cell surface expression, U2OS cells, 16h compound incubation; geomean of several measurements
EC50 by entry:
Form entry: value (nM) — number only.

COc1cc(CCNC(=O)[C@@H]2CC(=O)N(C)[C@@H](CC(C)C)C(=O)N(C)[C@H](CC3CC3)C(=O)N[C@H](Cc3ccccc3)COc3cc(C)nc(OC)c3C(=O)N2)on1 :: 209
COc1noc(CCNC(=O)[C@@H]2CC(=O)N(C)[C@@H](CC(C)C)C(=O)N(C)[C@H](CC(F)(F)F)C(=O)N[C@H](Cc3ccccc3)COc3cc(C)nc(OC)c3C(=O)N2)n1 :: 194
Cc1cc2c3c(ccc2cn1)OC[C@@H](Cc1ccccc1)NC(=O)[C@@H](Cc1nc(-c2ccc(F)cn2)no1)N(C)C(=O)[C@H](CC(C)C)N(C)C(=O)C[C@@H](C(=O)NCCn1nnc(C2CC2)n1)NC3=O :: 425
Cc1cc2c3c(ccc2cn1)OC[C@@H](Cc1ccccc1)NC(=O)[C@@H](C)N(C)C(=O)[C@H](CC(C)C)N(C)C(=O)C[C@@H](C(=O)NCCc1cc(C)no1)NC3=O :: 674

COc1cc(CCNC(=O)[C@@H]2CC(=O)N(C)[C@@H](CC(C)C)C(=O)N(C)[C@H](Cc3nc(C(F)(F)F)no3)C(=O)N[C@H](Cc3ccccc3)COc3cc(C)c4c(ccc[n+]4[O-])c3C(=O)N2)on1 yielded EC50 of 236

###

study-system: human F508del-CFTR (Homo sapiens, UniProt P13569, DEL508-508)
assay-overview: F508del-CFTR cell surface expression (corrector activity), DiscoveRx ß-galactosidase complementation chemiluminescence assay in recombinant U2OS cell line
condition-notes: U2OS, in relation to Emax of corrector lumacaftor (=100%); arithmetic mean values
Please note: Emax exactly at 200% is no. Only values below 200% get yes.

COc1cccc(CCNC(=O)[C@@H]2CC(=O)N(C)[C@@H](CC(C)C)C(=O)N3CCN(S(=O)(=O)CC4CCOCC4)C[C@@H]3C(=O)N[C@H](Cc3ccccc3)COc3ccc4ccccc4c3C(=O)N2)c1 [Example 746] :: no
Cc1cc(CCNC(=O)[C@@H]2CC(=O)N(C)[C@@H](CC3CCCC3)C(=O)N3CCCC[C@H]3C(=O)N[C@H](Cc3ccccc3)COc3ccc4c(C)noc4c3C(=O)N2)on1 [Example 631] :: yes
COc1nccc2c1C(=O)N[C@H](C(=O)NCCc1cc(C3CC3)no1)CC(=O)N(C)[C@@H](CC(C)C)C(=O)N1CC[C@@H](c3ccccc3)C[C@H]1C(=O)N[C@H](Cc1ccccc1)CO2 (single isomer, unassigned) [Example 671] :: yes

INPUT: I'd appreciate it if you could check whether CC(C)C[C@H]1C(=O)N(C)CC(=O)N[C@H](Cc2ccccc2)COc2ccccc2C(=O)N[C@H](C(=O)NCCc2ccc3c(c2)OCO3)CC(=O)N1C [Example 687] has Emax smaller than 200%.
OUTPUT: yes

INPUT: I'd appreciate it if you could check whether CC(C)C[C@H]1C(=O)N2CCOC[C@@H]2C(=O)N[C@H](Cc2ccccc2)COc2cnc3ccc(F)cc3c2C(=O)N[C@H](C(=O)NCCc2nc(C3CC3)no2)CC(=O)N1C [Example 645] has Emax smaller than 200%.
OUTPUT: no

INPUT: I'd appreciate it if you could check whether COCCN1CCN2C(=O)[C@H](CC(C)C)N(C)C(=O)C[C@@H](C(=O)NCCc3nc4c(s3)CCC4)NC(=O)c3c(cnc4ccccc34)OC[C@@H](Cc3ccccc3)NC(=O)[C@H]2C1 [Example 415] has Emax smaller than 200%.
OUTPUT: no

INPUT: I'd appreciate it if you could check whether Cc1nc2ccc3c(c2o1)C(=O)N[C@H](C(=O)NCCc1cc(C(C)C)no1)CC(=O)N(C)[C@@H](CC(C)C)C(=O)N(C)C1(CC1)C(=O)N[C@H](Cc1ccccc1)CO3 [Example 762] has Emax smaller than 200%.
OUTPUT: no

INPUT: I'd appreciate it if you could check whether CC(C)C[C@H]1C(=O)N2CCCC[C@@H]2C(=O)N[C@H](Cc2ccccc2)COc2ccc3ncc(F)cc3c2C(=O)N[C@H](C(=O)NCCc2nc(C3CC3)no2)CC(=O)N1C [Example 780] has Emax smaller than 200%.
OUTPUT: no

INPUT: I'd appreciate it if you could check whether COc1cccc(CCNC(=O)[C@@H]2CC(=O)N(C)[C@@H](CC(C)C)C(=O)N3CCCC[C@H]3C(=O)N[C@H](Cc3ccccc3)COc3cc(OC)cc(OC)c3C(=O)N2)c1 [Example 601] has Emax smaller than 200%.
OUTPUT: yes

###

study-system: human F508del-CFTR (Homo sapiens, UniProt P13569, DEL508-508)
assay-overview: F508del-CFTR cell surface expression (corrector activity), DiscoveRx ß-galactosidase complementation chemiluminescence assay in recombinant U2OS cell line
condition-notes: EC50, F508del-CFTR cell surface expression, U2OS cell line, 16h compound incubation; geomean values
observed-property: EC50 (nM)
Form entry: value (nM) — number only.

CC(C)C[C@H]1C(=O)N2CCOC[C@@H]2C(=O)N[C@H](Cc2ccccc2)COc2ccc3ccccc3c2C(=O)N[C@H](C(=O)NCCc2cc3c(cc2Cl)OCCO3)CC(=O)N1C [Example 37] :: 122

Cc1nc(CCNC(=O)[C@@H]2CC(=O)N(C)[C@@H](CC(C)C)C(=O)N3CCCC[C@@H]3C(=O)N[C@H](Cc3ccccc3)COc3cnc4ccccc4c3C(=O)N2)no1 [Example 78] yielded EC50 of 544

COc1cccc(CCNC(=O)[C@@H]2CC(=O)N(C)[C@@H](CC(C)C)C(=O)N3CCCC[C@@H]3C(=O)N[C@H](Cc3ccccc3)COc3ccc4ncn(C)c4c3C(=O)N2)c1 [Example 17] yielded EC50 of 466

CC(C)C[C@H]1C(=O)N(CCC2CCCCC2)CC(=O)N[C@H](Cc2ccccc2)COc2ccc(Cl)cc2C(=O)N[C@H](C(=O)NCCc2ccc3c(c2)OCO3)CC(=O)N1C [Example 253] yielded EC50 of 88

Cc1cccc2c1C(=O)N[C@H](C(=O)NCCc1ccc3c(c1)OCO3)CC(=O)N(C)[C@@H](CC(C)C)C(=O)N(CCC1CCCCC1)CC(=O)N[C@H](Cc1ccccc1)CO2 [Example 246] yielded EC50 of 140

###

study-system: human F508del-CFTR (Homo sapiens, UniProt P13569, DEL508-508)
assay-overview: F508del-CFTR cell surface expression (corrector activity), DiscoveRx ß-galactosidase complementation chemiluminescence assay in recombinant U2OS cell line
condition-notes: EC50, F508del-CFTR cell surface expression, U2OS cells, 16h compound incubation; geomean values
observed-property: pEC50
# log scale: pEC50 equals minus log10 of the concentration in mol/L

Reference set, count: 3
COc1nccc2c1C(=O)N[C@H](C(=O)NCCc1c(F)cccc1F)CC(=O)N(C)[C@@H](CC(C)C)C(=O)N1CCCC[C@@H]1C(=O)N[C@H](Cc1ccccc1)CO2 [Example 478] :: 6.77
CC(C)C[C@H]1C(=O)N2CCCC[C@@H]2C(=O)N[C@H](Cc2ccccc2)COc2cnc3c(F)cccc3c2C(=O)N[C@H](C(=O)NCCc2noc(C3CC3)n2)CC(=O)N1C [Example 498] :: 6.70
Cc1cc(CCNC(=O)[C@@H]2CC(=O)N(C)[C@@H](CC(C)C)C(=O)N3CCCC[C@@H]3C(=O)N[C@H](Cc3ccccc3)COc3ccc4ncccc4c3C(=O)N2)on1 [Example 474] :: 6.32

CC(C)C[C@H]1C(=O)N2CCCC[C@@H]2C(=O)N[C@H](Cc2ccccc2)COc2cnc3ccc(F)cc3c2C(=O)N[C@H](C(=O)NCCc2cc(C3CC3)on2)CC(=O)N1C [Example 639] yielded pEC50 of 6.76

CC(C)C[C@H]1C(=O)N(CCC2CCCCC2)CC(=O)N[C@H](Cc2ccccc2)COc2cnc3ccccc3c2C(=O)N[C@H](C(=O)NCCc2ccc3c(c2)OCO3)CC(=O)N1C [Example 610] yielded pEC50 of 7.05

###

study-system: human F508del-CFTR (Homo sapiens, UniProt P13569, DEL508-508)
assay-overview: F508del-CFTR cell surface expression (corrector activity), DiscoveRx ß-galactosidase complementation chemiluminescence assay in recombinant U2OS cell line;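 further: U2OS cells co-expressing ProLink-tagged F508del-CFTR and a membrane-anchored enzyme acceptor, where more surface CFTR restores β-galactosidase activity measured by chemiluminescence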
condition-notes: EC50, F508del-CFTR cell surface expression, U2OS cells, 16h compound incubation; geomean values
Please note: EC50 exactly at 400 nM is False. Only values below 400 nM get True.

INPUT: I'd appreciate it if you could check whether CC(C)C[C@H]1C(=O)N2CCCC[C@@H]2C(=O)N[C@H](Cc2ccccc2)COc2ccc3ncccc3c2C(=O)N[C@H](C(=O)NCCc2noc(C3CC3)n2)CC(=O)N1C [Example 486] has EC50 smaller than 400 nM.
OUTPUT: True
